Hey, just so you know, these numbers are from the RNAGym collection of RNA variant scans (doi:10.1021/acssynbio.7b00057).

B1: Pistol ribozyme (parent)
chain: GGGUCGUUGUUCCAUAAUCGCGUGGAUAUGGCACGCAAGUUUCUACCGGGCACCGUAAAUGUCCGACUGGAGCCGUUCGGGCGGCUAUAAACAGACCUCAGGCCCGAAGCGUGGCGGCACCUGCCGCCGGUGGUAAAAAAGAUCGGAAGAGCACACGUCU

# Variants of: B1
# experiment: aptazyme ON/OFF ratio, guanine; higher = stronger switching; co-transcriptional cleavage with and without guanine
Kindly state aptazyme ON/OFF ratio for each of the entries shown.
Answers are plain numbers.

U7C U8A G9A U10A U11C C12A C13U    1.16
U7G U8A G9C C12U C13G    1.06
G9A U10C U11A C12A C13U    1.63
U7C U8C G9A U10G C13G    1.12
U8G U10G U11G C12A C13A    1.08

Hello, I would appreciate it if you could give aptazyme ON/OFF ratio for each entry below.
1. U7C U11A C12A C13A
2. U7G U8A G9A C13U
3. U7G G9U U11C C12G C13G
4. U7G G9C U10G U11G C12A C13U
5. U7A U8C G9U U10G U11G

## Output
1. 1.23
2. 1.23
3. 1.26
4. 1.12
5. 1.11

## Input What value of measured aptazyme ON/OFF ratio is listed for U7G U8G G9C U10G U11A C12A C13U ?
## Output 1.11
